// data source = the supplement of paper PMC6555819

# PBM binding z-score annotations
- Tested on: LXRb homodimer (NR concentration 270 nM)
- method: PBM binding z-score (relative to random genomic background probes); higher = stronger binding; sequences stand for … in GC…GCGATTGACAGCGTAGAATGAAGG
measurement-kind: PBM binding z-score

construct_sequence=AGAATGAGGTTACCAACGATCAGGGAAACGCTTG numeric_readout=-0.375
construct_sequence=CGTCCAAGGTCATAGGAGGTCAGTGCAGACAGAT numeric_readout=1.16
construct_sequence=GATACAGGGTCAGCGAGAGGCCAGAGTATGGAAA numeric_readout=-1.12
construct_sequence=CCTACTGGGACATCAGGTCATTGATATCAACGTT numeric_readout=0.52
construct_sequence=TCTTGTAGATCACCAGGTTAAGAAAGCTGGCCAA numeric_readout=0.00375
construct_sequence=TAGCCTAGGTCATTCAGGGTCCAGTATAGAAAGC numeric_readout=0.48
construct_sequence=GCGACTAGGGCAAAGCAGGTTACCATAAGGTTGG numeric_readout=-1.03
construct_sequence=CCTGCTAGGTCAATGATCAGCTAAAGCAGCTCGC numeric_readout=-0.139
construct_sequence=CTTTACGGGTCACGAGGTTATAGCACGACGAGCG numeric_readout=0.444
construct_sequence=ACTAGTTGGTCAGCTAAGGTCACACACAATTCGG numeric_readout=0.836
construct_sequence=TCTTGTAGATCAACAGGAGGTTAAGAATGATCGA numeric_readout=-0.4
construct_sequence=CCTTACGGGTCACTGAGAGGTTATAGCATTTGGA numeric_readout=-0.26
construct_sequence=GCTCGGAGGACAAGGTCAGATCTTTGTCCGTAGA numeric_readout=-0.0535
construct_sequence=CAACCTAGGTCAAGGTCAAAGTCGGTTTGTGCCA numeric_readout=1.07
construct_sequence=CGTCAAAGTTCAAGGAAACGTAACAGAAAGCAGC numeric_readout=0.958
construct_sequence=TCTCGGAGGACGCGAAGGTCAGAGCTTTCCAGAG numeric_readout=-1.33
construct_sequence=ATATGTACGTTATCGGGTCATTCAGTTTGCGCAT numeric_readout=1.03
construct_sequence=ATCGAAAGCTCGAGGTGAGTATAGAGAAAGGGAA numeric_readout=-0.851
construct_sequence=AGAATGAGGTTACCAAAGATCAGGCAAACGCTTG numeric_readout=-0.531
construct_sequence=AATACAGGGTCACTAGGCCAGAGTTGGTACGAAT numeric_readout=0.616
construct_sequence=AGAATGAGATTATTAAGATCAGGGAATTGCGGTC numeric_readout=-0.452
construct_sequence=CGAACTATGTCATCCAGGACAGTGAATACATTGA numeric_readout=0.0323
construct_sequence=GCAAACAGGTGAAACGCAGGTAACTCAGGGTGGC numeric_readout=-0.88
construct_sequence=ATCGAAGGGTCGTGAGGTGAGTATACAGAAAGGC numeric_readout=0.162
construct_sequence=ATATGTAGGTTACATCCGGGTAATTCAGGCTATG numeric_readout=0.708
construct_sequence=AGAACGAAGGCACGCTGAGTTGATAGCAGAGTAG numeric_readout=-0.997
construct_sequence=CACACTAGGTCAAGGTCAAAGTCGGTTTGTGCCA numeric_readout=2.5
construct_sequence=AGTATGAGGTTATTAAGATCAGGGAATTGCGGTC numeric_readout=0.578
construct_sequence=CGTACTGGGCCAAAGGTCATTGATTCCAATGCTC numeric_readout=0.838
construct_sequence=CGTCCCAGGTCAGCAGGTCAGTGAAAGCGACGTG numeric_readout=-0.0332
construct_sequence=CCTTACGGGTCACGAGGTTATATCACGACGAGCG numeric_readout=-0.0743
construct_sequence=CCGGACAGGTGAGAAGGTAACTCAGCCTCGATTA numeric_readout=-0.839
construct_sequence=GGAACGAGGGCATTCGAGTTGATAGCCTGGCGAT numeric_readout=-0.65
construct_sequence=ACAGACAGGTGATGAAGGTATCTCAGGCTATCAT numeric_readout=-0.55
construct_sequence=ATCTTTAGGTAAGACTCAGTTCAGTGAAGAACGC numeric_readout=0.931
construct_sequence=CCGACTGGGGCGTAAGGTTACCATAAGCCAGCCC numeric_readout=-1.25
construct_sequence=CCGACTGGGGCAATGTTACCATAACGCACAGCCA numeric_readout=-1.01
construct_sequence=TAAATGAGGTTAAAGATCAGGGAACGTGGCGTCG numeric_readout=1.07
construct_sequence=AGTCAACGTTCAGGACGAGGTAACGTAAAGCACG numeric_readout=-0.581
construct_sequence=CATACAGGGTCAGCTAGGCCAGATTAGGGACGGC numeric_readout=0.391
construct_sequence=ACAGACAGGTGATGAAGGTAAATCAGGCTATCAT numeric_readout=-0.557
construct_sequence=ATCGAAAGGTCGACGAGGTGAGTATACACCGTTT numeric_readout=0.533
construct_sequence=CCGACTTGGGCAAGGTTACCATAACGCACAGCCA numeric_readout=-0.76
construct_sequence=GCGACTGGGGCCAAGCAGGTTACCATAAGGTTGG numeric_readout=-1.37
construct_sequence=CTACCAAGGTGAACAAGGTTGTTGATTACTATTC numeric_readout=-0.417
construct_sequence=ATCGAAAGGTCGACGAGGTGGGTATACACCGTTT numeric_readout=0.209
construct_sequence=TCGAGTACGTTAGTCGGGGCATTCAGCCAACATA numeric_readout=-1.12
construct_sequence=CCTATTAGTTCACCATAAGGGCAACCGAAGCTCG numeric_readout=0.844
construct_sequence=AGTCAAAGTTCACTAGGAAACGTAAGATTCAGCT numeric_readout=0.822
construct_sequence=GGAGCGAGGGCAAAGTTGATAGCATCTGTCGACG numeric_readout=-0.792
construct_sequence=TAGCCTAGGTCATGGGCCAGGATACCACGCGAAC numeric_readout=-0.43
